Assayed Target: Luciferin 4-monooxygenase (Luciola lateralis)
Assay Explanation: Inhibition of firefly luciferase activity at 10 uM
Conditions: Aquatica lateralis
Reported Endpoint: inhibition (%)

[I] O=C(Nc1ccc(-c2ccccc2)cn1)c1ccc(Cl)c(Cl)c1
[II] O=C(Nc1cccc(-c2ccccc2)n1)c1ccccc1
[III] c1ccc(CNc2ccc(-c3ccccc3)cn2)cc1
[IV] O=C(Nc1ccc(-c2ccccc2)cn1)c1ccc(Cl)cc1
// query Lab note: arrange the 4 compounds above from lowest to highest inhibition. Your reply should list the labels following the order given in the request.
// result IV, I, III, II

[I] CN(C)c1ccc(-c2ccc(NC(=O)c3ccccc3)nc2)cc1
[II] O=C(Nc1ccc(-c2ccc(Cl)c(Cl)c2)cn1)c1ccccc1
[III] COc1ccc(C(=O)Nc2ccc(-c3ccccc3)cn2)c(OC)c1
[IV] CC(C)(C)c1ccc(-c2ccc(NC(=O)c3ccccc3)nc2)cc1
// query Arrange these compounds by their inhibition, starting with the largest number. Respond with an ordered listing of the labels, as requested.
// result IV, III, I, II
